Item-by-item account of Activity at 133 nM (% Inhibition), 1-hour Pre-incubation at 4° C., Average
molecular target: KDR (human, UniProt P35968 20-1356); test: cell-based or functional assay
Sequence (P35968 20-1356): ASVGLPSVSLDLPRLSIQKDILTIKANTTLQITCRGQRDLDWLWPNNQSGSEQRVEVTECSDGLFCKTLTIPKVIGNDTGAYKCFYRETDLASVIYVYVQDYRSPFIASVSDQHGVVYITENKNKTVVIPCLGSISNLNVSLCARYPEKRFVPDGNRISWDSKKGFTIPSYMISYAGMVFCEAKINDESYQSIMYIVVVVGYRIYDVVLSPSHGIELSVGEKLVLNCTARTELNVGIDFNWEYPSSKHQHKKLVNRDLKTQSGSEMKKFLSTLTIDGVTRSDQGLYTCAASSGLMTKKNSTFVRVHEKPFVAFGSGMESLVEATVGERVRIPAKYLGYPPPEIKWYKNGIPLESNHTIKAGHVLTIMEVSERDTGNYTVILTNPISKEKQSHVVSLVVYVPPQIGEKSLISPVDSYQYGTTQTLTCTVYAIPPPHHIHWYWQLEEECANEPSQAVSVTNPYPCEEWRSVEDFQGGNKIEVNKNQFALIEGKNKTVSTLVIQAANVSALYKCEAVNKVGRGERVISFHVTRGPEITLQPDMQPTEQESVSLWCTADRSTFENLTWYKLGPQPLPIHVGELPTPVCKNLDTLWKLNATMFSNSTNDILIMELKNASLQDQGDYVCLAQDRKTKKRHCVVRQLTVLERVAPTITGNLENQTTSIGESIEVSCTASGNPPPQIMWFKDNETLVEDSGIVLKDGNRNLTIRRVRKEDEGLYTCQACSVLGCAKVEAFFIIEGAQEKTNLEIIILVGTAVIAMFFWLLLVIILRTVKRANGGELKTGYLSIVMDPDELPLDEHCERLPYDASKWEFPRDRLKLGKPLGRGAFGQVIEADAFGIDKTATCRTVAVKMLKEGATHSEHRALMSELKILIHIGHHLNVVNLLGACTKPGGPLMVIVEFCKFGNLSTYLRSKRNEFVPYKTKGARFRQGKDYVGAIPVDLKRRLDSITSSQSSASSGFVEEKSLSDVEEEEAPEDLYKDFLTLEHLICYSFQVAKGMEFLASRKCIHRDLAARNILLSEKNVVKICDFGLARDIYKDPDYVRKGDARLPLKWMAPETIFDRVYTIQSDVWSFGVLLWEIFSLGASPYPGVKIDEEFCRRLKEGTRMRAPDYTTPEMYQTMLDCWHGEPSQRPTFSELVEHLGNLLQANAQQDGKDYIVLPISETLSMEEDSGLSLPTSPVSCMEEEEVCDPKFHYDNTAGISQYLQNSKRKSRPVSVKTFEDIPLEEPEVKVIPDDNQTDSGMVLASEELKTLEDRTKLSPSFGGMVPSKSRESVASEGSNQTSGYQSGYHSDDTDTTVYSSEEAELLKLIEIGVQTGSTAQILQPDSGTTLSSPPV
Numeric answer only, unit % assumed.

Some binders with known Activity at 133 nM (% Inhibition), 1-hour Pre-incubation at 4° C., Average results, for comparison:
Binder | Readout Value
33E1 (antibody, V domains shown) VH: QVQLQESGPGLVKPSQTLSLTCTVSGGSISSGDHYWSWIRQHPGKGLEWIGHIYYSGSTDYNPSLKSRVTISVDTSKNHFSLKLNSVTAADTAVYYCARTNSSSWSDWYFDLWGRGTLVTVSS VL: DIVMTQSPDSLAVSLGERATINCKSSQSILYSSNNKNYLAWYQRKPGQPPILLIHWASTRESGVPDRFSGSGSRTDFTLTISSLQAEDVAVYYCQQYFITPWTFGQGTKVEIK | 77
32G7 (antibody, V domains shown) VH: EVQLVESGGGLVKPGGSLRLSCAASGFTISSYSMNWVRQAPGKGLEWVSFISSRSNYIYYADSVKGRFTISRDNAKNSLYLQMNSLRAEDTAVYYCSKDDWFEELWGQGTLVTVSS VL: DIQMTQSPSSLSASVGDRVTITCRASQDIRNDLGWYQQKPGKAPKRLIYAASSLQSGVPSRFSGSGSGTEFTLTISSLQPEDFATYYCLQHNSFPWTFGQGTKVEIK | 79

Incoming: // Input: 1G6 (antibody, V domains shown) VH: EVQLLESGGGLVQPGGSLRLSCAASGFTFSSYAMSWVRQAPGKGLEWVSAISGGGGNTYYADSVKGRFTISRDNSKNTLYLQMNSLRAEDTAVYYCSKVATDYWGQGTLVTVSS VL: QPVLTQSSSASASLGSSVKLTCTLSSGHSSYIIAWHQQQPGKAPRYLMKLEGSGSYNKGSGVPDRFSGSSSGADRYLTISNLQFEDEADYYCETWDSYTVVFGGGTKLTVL . Output its Activity at 133 nM (% Inhibition), 1-hour Pre-incubation at 4° C., Average only.
Outgoing: 43

Measured values drawn from patent US20100260765A1 for this set.
